Would you mind telling me the reported Population Mitochondria Different-Phenotype (%) of each entry?
# Test system: Fibroblast
# assayText: Multiplex assay against human fibroblast
# Format: toxicity, cell-based
# protocolConditions: 48 h, 1 µM, compound concentration 1 uM, replicate 1
Express the result in % but write the number alone.

Give Population Mitochondria Different-Phenotype (%) for O=c1cc(N2CCOCC2)oc2c(-c3cccc4c3sc3ccccc34)cccc12 7

Give Population Mitochondria Different-Phenotype (%) for COc1cc(Nc2nccc(-c3cnn4nc(OC)ccc34)n2)cc(C(F)(F)F)c1 0

Give Population Mitochondria Different-Phenotype (%) for CN1CCN(Cc2ccc(Nc3ncc(Cl)c(Nc4ccccc4S(=O)(=O)N(C)C)n3)cc2)CC1 7

Give Population Mitochondria Different-Phenotype (%) for CC1=C(C(=O)Nc2cc3cn[nH]c3cc2F)C(c2ccc(C(F)(F)F)cc2)CC(=O)N1 (configuration not stated) 5

Give Population Mitochondria Different-Phenotype (%) for Cc1c[nH]c2nccc(Oc3c(F)cc(Nc4cc(Cl)nc(N)n4)cc3F)c12 1

Give Population Mitochondria Different-Phenotype (%) for CCc1ccc(OCc2ccccc2C(=O)Nc2ccc3nc(C)cc(N)c3c2)cc1.Cl 32

Give Population Mitochondria Different-Phenotype (%) for COc1cc2ncn(-c3cc(OCc4ccccc4C(F)(F)F)c(C(N)=O)s3)c2cc1OC [GW843682X] 7

Give Population Mitochondria Different-Phenotype (%) for COc1ccccc1CN[C@H]1C2CCN(CC2)[C@H]1C(c1ccccc1)c1ccccc1 3

Give Population Mitochondria Different-Phenotype (%) for C[C@]12CC[C@@H]3c4ccc(O)cc4CC[C@H]3[C@@H]1CC[C@@H]2O 0

Give Population Mitochondria Different-Phenotype (%) for CCCSc1nc(N[C@@H]2C[C@H]2c2ccc(F)c(F)c2)c2nnn([C@@H]3C[C@H](OCCO)[C@@H](O)[C@H]3O)c2n1 5

Give Population Mitochondria Different-Phenotype (%) for Cc1cccc(CN2CCN(C(c3ccccc3)c3ccc(Cl)cc3)CC2)c1.Cl.Cl (configuration not stated) 3

Give Population Mitochondria Different-Phenotype (%) for CC(C)c1noc(N2CCC(COc3ccc(-c4ccc(S(C)(=O)=O)cc4)nc3)CC2)n1 8

Give Population Mitochondria Different-Phenotype (%) for CNC(=O)Nc1ccc(-c2nc(N3CC4CCC(C3)O4)c3cnn(C4CCC5(CC4)OCCO5)c3n2)cc1 8

Give Population Mitochondria Different-Phenotype (%) for CC(C)(C)NC[C@H](O)COc1nsnc1N1CCOCC1 2

Give Population Mitochondria Different-Phenotype (%) for Cl.O=C(O)c1cc(-c2ccc(C3CCNCC3)cc2)c2ccc(-c3ccc(C(F)(F)F)cc3)cc2c1 0

Give Population Mitochondria Different-Phenotype (%) for COC(=O)C1=C(C)NC(C)=C(C(=O)OCCCN2CCC(c3ccccc3)(c3ccccc3)CC2)[C@H]1c1cccc([N+](=O)[O-])c1 70

Give Population Mitochondria Different-Phenotype (%) for CC(C)OC(=O)N1CCC(Oc2ncnc3c2cnn3-c2ccc(S(C)(=O)=O)cc2F)CC1 0
